Origin of the recorded values: PubChem BioAssay

Experiment: viability of PTEN-null HCT116 cells – cell-based, HCT116 clonal line, CellTiter-Glo, pilot screen (AID 824);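 further: 0% = 20 µM Hyamine control and 100% = vehicle cell control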
Details: HCT116 PTEN-deleted viability, 60 h, at 10 µM, active compounds read low
Records with an inconclusive call do not appear.
Values of viability strictly less than 90% map to true (1), and values of at least 90% map to false (0).

INSERT INTO measurements (molecule, group) VALUES
  ('Cc1cc(N2CCN(C3CCCCC3)CC2)nc2cccc(O)c12', 'true (1)'),
  ('O=C(CS(=O)(=O)Cc1ccccc1)Nc1nc2ccccc2s1', 'false (0)'),
  ('COc1ccc(-c2nnc(SCC(=O)N3CCOCC3)o2)cc1OC', 'false (0)'),
  ('COc1ccc(C2CC(=O)C(C=NCCCN3CCOCC3)=C(O)C2)cc1 (stereo not drawn)', 'false (0)'),
  ('COc1nc(Oc2ccc(=O)n(C)n2)nc(N(C)C)n1', 'false (0)'),
  ('CCCNC(=O)CS(=O)(=O)Cc1nc(-c2cccc(OC)c2)oc1C', 'true (1)');

Data request: Strictly below 90%: is that where viability of Cc1cc(N)n2nc(-c3ccccc3)cc2n1 sits?
Data returned: true (1)

Data request: A record lists COC(=O)CCC(=O)Nc1ccc(OC)cc1 . Is its viability below 90%?
Data returned: false (0)

Data request: Item O=C(NC(C(=O)c1ccccc1)N1CCOCC1)c1ccccc1 (stereo not drawn) : viability beneath 90%, strictly?
Data returned: false (0)

Data request: API: query returns whether the molecule falls strictly under 90% in viability. Query: CC(O)CN1C(=O)C(CC(=O)Nc2ccc(Cl)cc2)SC1=Nc1ccccc1 (stereo not drawn)
Data returned: true (1)

Data request: Regarding CC1(C)CC(=O)C2=C(C1)OC(N)=C(C#N)C2c1ccc(OC(=O)N2CCOCC2)cc1 (stereo not drawn) , kindly confirm whether its viability is beneath 90%.
Data returned: false (0)

Data request: Item CCOc1ccc(NC(=O)CN(c2cc(C)cc(C)c2)S(=O)(=O)c2c(C)noc2C)cc1 : viability beneath 90%, strictly?
Data returned: false (0)

Data request: hey, is viability for CCOc1ccc(-n2nnc3c(=O)n(CC(=O)N4CCCc5ccccc54)cnc32)cc1 lower than 90% or not?
Data returned: true (1)
